Items are presented alongside their recorded pEC50.
- systemUnderTest: human S1P1 receptor (Homo sapiens, UniProt P21453)
- Sequence (P21453 whole entry): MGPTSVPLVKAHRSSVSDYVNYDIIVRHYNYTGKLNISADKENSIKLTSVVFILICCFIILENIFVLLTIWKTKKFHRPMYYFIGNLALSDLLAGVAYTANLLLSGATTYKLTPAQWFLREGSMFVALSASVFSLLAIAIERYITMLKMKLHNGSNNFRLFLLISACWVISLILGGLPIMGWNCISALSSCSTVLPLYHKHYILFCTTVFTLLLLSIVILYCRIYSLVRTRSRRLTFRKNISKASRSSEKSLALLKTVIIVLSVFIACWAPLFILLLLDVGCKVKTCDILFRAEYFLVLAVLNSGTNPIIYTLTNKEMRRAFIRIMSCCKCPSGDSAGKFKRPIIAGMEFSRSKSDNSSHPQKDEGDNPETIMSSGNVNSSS
- assayOverview: HTRF assay for direct cAMP measurement (S1P1 agonism)
- conditionDescription: recombinant CHO-K1 cells stably transfected with S1P1; decrease of cAMP
- From the text: Compounds were screened for agonists of the S1P1 receptor (e.g., human S1P1 receptor) using the HTRF® assay for direct cAMP measurement (Gabriel et al., Assay and Drug Development Technologies, 1:291-303, 2003) and recombinant CHO-K1 cells stably transfected with S1P1. CHO-K1 cells were obtained from ATCC® (Manassas, Va.; Catalog #CCL-61). An agonist of the S1P1 receptor was detected in the HTRF® assay for direct cAMP measurement as a compound which decreased cAMP concentration. […]
pEC50: −log10 of the molar value.

>  <molecule>
CC(C)Oc1ccc(COc2ccc3c(c2)cc2n3CCC2CC(=O)O)cc1C#N (centres unmarked)

>  <pEC50>
9.62

$$$$
>  <molecule>
O=C(O)CC1CCn2c1c(C1CCC1)c1cc(OCc3ccc(C4CCCC4)c(C(F)(F)F)c3)ccc12 (centres unmarked)

>  <pEC50>
8.28

$$$$
>  <molecule>
CC(C)Cc1ccc(COc2ccc3c(c2)cc2n3CCC2CC(=O)O)cc1C(F)(F)F (centres unmarked)

>  <pEC50>
9.49

$$$$
>  <molecule>
O=C(O)CC1CCn2c1nc1cc(OCc3ccc(C4CCCC4)c(C(F)(F)F)c3)ccc12 (centres unmarked)

>  <pEC50>
8.20

$$$$
>  <molecule>
O=C(O)CC1CCn2c1c(I)c1cc(OCc3ccc(C4CCCC4)c(C(F)(F)F)c3)ccc12 (centres unmarked)

>  <pEC50>
10.96

$$$$

These measurements were taken from patent US9108969B2.
